- Measured on: T1, PSMA Fab (006 PSMA Fab)
- T1 construct: also called Anti-PSMA Fab; anti-PSMA Fab
- Test description: phage ELISA; biotinylated PSMA Fab on neutravidin plate, clonal phage supernatant, anti-M13 HRP; blocking buffer alone
Where no end group is shown, it is not given here.
Catalogue of Phage binding ELISA signal, Anti-PSMA Fab readings, one per entry.
Measured parameter: Phage binding ELISA signal, Anti-PSMA Fab

{"Binder": "VNVRCEPSWMCTGL [Phage-3243]", "Recorded number": 1.94}
{"Binder": "VTHSCVPAWMCVGL [Phage-3248]", "Recorded number": 1.93}
{"Binder": "LSAMCVPPWMCTGF [Phage-3244]", "Recorded number": 1.94}
{"Binder": "MPMHCVPSWMCEGF [Phage-3252]", "Recorded number": 1.93}
{"Binder": "DSVLCVPSWMCHGF (cysteine pairing not given here; also: fused to phage pIII, fusion site not given here) [Phage-3239]", "Recorded number": 1.94}
{"Binder": "NILRCEPMWMCTGF [Phage-3245]", "Recorded number": 1.94}
{"Binder": "QDIVCRPSWMCHGF [Phage-3246]", "Recorded number": 1.94}
